# test protocol: Fluorescence of modified Rhodamine dyes (spectrometry and spectrofluorometry)
# Assay type: physicochemical
# recorded conditions: Test Conc. 1 μM, MeOH
recorded endpoint: Peak Excitation Wavelength (nm)
Answers are plain numbers, in nm.

>>> test_value("CCCCCCCCCCCCOC(=O)Nc1ccc2c(c1)Oc1cc(N)ccc1C21OC(=O)c2ccccc21 (centres unmarked) [N-Dodecyloxycarbonyl-Rhodamine 110, N-Dodecyloxycarbonyl-Rhodamine-110]")
480
>>> test_value("CCCCCCCCCCOC(=O)Nc1ccc2c(c1)Oc1cc(N)ccc1C21OC(=O)c2ccccc21 (centres unmarked) [N-Decyloxycarbonyl-Rhodamine 110, N-Decyloxycarbonyl-Rhodamine-110]")
475
>>> test_value("CCCCCCCCOC(=O)Nc1ccc2c(c1)Oc1cc(N)ccc1C21OC(=O)c2ccccc21 (centres unmarked) [N-Octyloxycarbonyl-Rhodamine 110]")
470
>>> test_value("CCCCCCCCSC(=O)Nc1ccc2c(c1)Oc1cc(N)ccc1C21OC(=O)c2ccccc21 (centres unmarked) [N-(Octylthio)carbonyl-Rhodamine 110, N-(Octylthio)carbonyl Rhodamine 110]")
470

Here's the next entry for you.
Input line: # lookup: Peak Excitation Wavelength of CCCCCCSC(=O)Nc1ccc2c(c1)Oc1cc(N)ccc1C21OC(=O)c2ccccc21 (centres unmarked) [N-(Hexylthio)carbonyl-Rhodamine 110]
Output line: 490

* * *

# Test system: apoptotic HL-60 cell lysates
# test protocol: Cleavage of caspase-3 substrates by apoptotic HL-60 cell lysates
# Type: biochemical
# recorded conditions: 10 μM or 50 μM substrate, 37° C., vinblastine treated HL-60 cell lysates
recorded endpoint: Cleavage by Apoptotic Lysates

>>> test_value("CCOC(=O)Nc1ccc2c(c1)Oc1cc(NC(=O)[C@H](CC(=O)O)NC(=O)[C@@H](NC(=O)[C@H](CCC(=O)O)NC(=O)[C@H](CC(=O)O)NC(=O)OCc3ccccc3)C(C)C)ccc1C21OC(=O)c2ccccc21 (stereo partly shown) [N-Z-DEVD-N′-ethoxycarbonyl-R110]")
"Good"
>>> test_value("CCOC(=O)Nc1ccc2c(c1)Oc1cc(NC(=O)C(CC(=O)O)NC(=O)C(NC(=O)C(CCC(=O)O)NC(=O)OCc3ccccc3)C(C)C)ccc1C21OC(=O)c2ccccc21 (stereo not shown) [N-Z-EVD-N′-ethoxycarbonyl-R110]")
"Fair"
>>> test_value("CCCCCCCCOC(=O)Nc1ccc2c(c1)Oc1cc(NC(=O)[C@H](CC(=O)O)NC(=O)[C@@H](NC(=O)[C@H](CCC(=O)O)NC(=O)[C@H](CC(=O)O)NC(C)=O)C(C)C)ccc1C21OC(=O)c2ccccc21 (stereo partly shown) [N-Ac-DEVD-N′-octyloxycarbonyl-R110]")
"Good"
>>> test_value("CCSC(=O)Nc1ccc2c(c1)Oc1cc(NC(=O)[C@H](CC(=O)O)NC(=O)[C@@H](NC(=O)[C@H](CCC(=O)O)NC(=O)[C@H](CC(=O)O)NC(C)=O)C(C)C)ccc1C21OC(=O)c2ccccc21 (stereo partly shown) [N-Ac-DEVD-N′-(ethylthio)carbonyl-R110]")
"Good"

* * *

# study target: recombinant CPP32 (Homo sapiens, UniProt P42574)
# Construct: made in house; host or cells: Sf9 insect cells, baculovirus vector
# Sequence (P42574 29-175 limits assumed): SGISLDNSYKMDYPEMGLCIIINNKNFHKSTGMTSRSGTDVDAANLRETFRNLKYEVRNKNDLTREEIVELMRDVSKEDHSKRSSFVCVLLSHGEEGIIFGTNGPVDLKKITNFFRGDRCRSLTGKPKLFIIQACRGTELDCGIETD
# Sequence (P42574 176-277 limits assumed): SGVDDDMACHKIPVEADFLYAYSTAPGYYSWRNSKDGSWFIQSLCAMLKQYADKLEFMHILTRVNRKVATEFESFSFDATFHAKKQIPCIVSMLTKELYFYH
# test protocol: Fluorometric enzyme assay, cleavage of substrate by recombinant CPP32
# Format: biochemical
# recorded conditions: summary of Table 4
# Experimental: The activities of N-(Z-VD)-N′-acetyl-Rhodamine 110, N-(Z-VAD)-N′-acetyl-Rhodamine 110, N-(Z-DEVD)-N′-acetyl-Rhodamine 110 SEQ ID NO:5, N-(Z-YVAD)-N-acetyl-Rhodamine 110 SEQ ID NO:2, (Z-VAD)2-Rhodamine 110 and (Z-YVAD)2-Rhodamine 110 SEQ ID NO:2 as synthetic substrates for recombinant CPP32 and ICE were measured in a fluorometric enzyme assay. […] Using this assay, the Km and Vmax values were determined for each substrate with either CPP32 or ICE. […]
recorded endpoint: efficiency as substrate for CPP32

Answered cases to consult:
>>> test_value("CC(=O)Nc1ccc2c(c1)Oc1cc(NC(=O)C(CC(=O)O)NC(=O)C(NC(=O)OCc3ccccc3)C(C)C)ccc1C21OC(=O)c2ccccc21 (stereo not drawn) [N-(Z-VD)-N′-Ac-Rhodamine 110, N-(Z-Val-Asp)-N′-acetyl-Rhodamine 110]")
"efficient substrate"
>>> test_value("CC(C)[C@H](NC(=O)OCc1ccccc1)C(=O)N[C@@H](C)C(=O)N[C@@H](CC(=O)O)C(=O)Nc1ccc2c(c1)Oc1cc(NC(=O)[C@H](CC(=O)O)NC(=O)[C@H](C)NC(=O)[C@@H](NC(=O)OCc3ccccc3)C(C)C)ccc1C21OC(=O)c2ccccc21 [(Z-VAD)2-Rhodamine 110, (Z-Val-Ala-Asp)2-Rhodamine 110]")
"not for CPP32"
>>> test_value("CC(C)[C@H](NC(=O)[C@H](Cc1ccc(O)cc1)NC(=O)OCc1ccccc1)C(=O)N[C@@H](C)C(=O)N[C@@H](CC(=O)O)C(=O)Nc1ccc2c(c1)Oc1cc(NC(=O)[C@H](CC(=O)O)NC(=O)[C@H](C)NC(=O)[C@@H](NC(=O)[C@H](Cc3ccc(O)cc3)NC(=O)OCc3ccccc3)C(C)C)ccc1C21OC(=O)c2ccccc21 [(Z-YVAD)2-Rhodamine 110, (Z-Tyr-Val-Ala-Asp)2-Rhodamine 110]")
"not for CPP32"
>>> test_value("CC(=O)Nc1ccc2c(c1)Oc1cc(NC(=O)[C@H](CC(=O)O)NC(=O)[C@@H](NC(=O)[C@H](CCC(=O)O)NC(=O)[C@H](CC(=O)O)NC(=O)OCc3ccccc3)C(C)C)ccc1C21OC(=O)c2ccccc21 (stereo partly drawn) [N-(Z-DEVD)-N′-Ac-Rhodamine 110]")
"efficient substrate"
>>> test_value("CC(=O)Nc1ccc2c(c1)Oc1cc(NC(=O)[C@H](CC(=O)O)NC(=O)[C@H](C)NC(=O)[C@@H](NC(=O)[C@H](Cc3ccc(O)cc3)NC(=O)OCc3ccccc3)C(C)C)ccc1C21OC(=O)c2ccccc21 (stereo partly drawn) [N-(Z-YVAD)-N′-Ac-Rhodamine 110]")
"not for CPP32"

Input line: # lookup: efficiency as substrate for CPP32 of CC(=O)Nc1ccc2c(c1)Oc1cc(NC(=O)C(CC(=O)O)NC(=O)C(C)NC(=O)C(NC(=O)OCc3ccccc3)C(C)C)ccc1C21OC(=O)c2ccccc21 (stereo not drawn) [N-(Z-VAD)-N′-Ac-Rhodamine 110]
Output line: not for CPP32

* * *

# test protocol: Fluorescence of modified Rhodamine dyes (spectrometry and spectrofluorometry)
# Type: physicochemical
# recorded conditions: Test Conc. 1 μM, Tris
# Method: Modified Rhodamine dyes were evaluated using both conventional spectrometry and spectrofluorometry. For both types of analysis the dyes were dissolved in either methanol or 50 mM Tris at final dye concentrations ranging from 10 nM to 100 μM. An absorbance spectrum from wavelengths of 200 nm to 700 nm was determined for each dye using a Beckman DU-7000 spectrophotometer. The dyes all had absorbance peaks at around 470 to 480 nm. […]
Please provide measured Peak Emission Wavelength for the entries that follow.
Give bare numbers, in nm.

>>> test_value("CCSC(=O)Nc1ccc2c(c1)Oc1cc(N)ccc1C21OC(=O)c2ccccc21 (stereo not drawn) [N-(Ethylthio)carbonyl-Rhodamine 110]")
520
>>> test_value("COCCOCCOCCOC(=O)Nc1ccc2c(c1)Oc1cc(N)ccc1C21OC(=O)c2ccccc21 (stereo not drawn)")
520

Here's the next entry for you.
Input line: # lookup: Peak Emission Wavelength of CCCCCCN(C)C(=O)Nc1ccc2c(c1)Oc1cc(N)ccc1C21OC(=O)c2ccccc21 (stereo not drawn)
Output line: 520

* * *

# Test system: apoptotic HL-60 cell lysates
# test protocol: Cleavage of caspase-3 substrates by apoptotic HL-60 cell lysates
# Type: biochemical
# recorded conditions: 10 μM or 50 μM substrate, 37° C., vinblastine treated HL-60 cell lysates
recorded endpoint: Cleavage by Apoptotic Lysates

>>> test_value("CCOC(=O)Nc1ccc2c(c1)Oc1cc(NC(=O)[C@H](CC(=O)O)NC(=O)[C@@H](NC(=O)OCc3ccccc3)C(C)C)ccc1C21OC(=O)c2ccccc21 (stereo partly drawn) [N-Z-VD-N′-ethoxycarbonyl-R110]")
"Poor"
>>> test_value("CCOC(=O)Nc1ccc2c(c1)Oc1cc(NC(=O)[C@H](CC(=O)O)NC(=O)[C@@H](NC(=O)[C@H](CCC(=O)O)NC(=O)[C@H](CC(=O)O)NC(C)=O)C(C)C)ccc1C21OC(=O)c2ccccc21 (stereo partly drawn) [N-Ac-DEVD-N′-ethoxycarbonyl-R110]")
"Good"
>>> test_value("CCCCCCOC(=O)Nc1ccc2c(c1)Oc1cc(NC(=O)[C@H](CC(=O)O)NC(=O)[C@@H](NC(=O)[C@H](CCC(=O)O)NC(=O)[C@H](CC(=O)O)NC(C)=O)C(C)C)ccc1C21OC(=O)c2ccccc21 (stereo partly drawn) [N-Ac-DEVD-N′-hexyloxycarbonyl-R110]")
"Good"

* * *

# test protocol: Fluorescence of modified Rhodamine dyes (spectrometry and spectrofluorometry)
# Type: physicochemical
# recorded conditions: Test Conc. 1 μM, Tris
recorded endpoint: Peak Emission Wavelength (nm)
Give bare numbers, in nm.

Each compound below has a recorded value; state its Peak Emission Wavelength.
1. CCOC(=O)Nc1ccc2c(c1)Oc1cc(N)ccc1C21OC(=O)c2ccccc21 (stereo not drawn)
2. CCCCOCCOC(=O)Nc1ccc2c(c1)Oc1cc(N)ccc1C21OC(=O)c2ccccc21 (stereo not drawn)
3. CS(=O)(=O)Nc1ccc2c(c1)Oc1cc(N)ccc1C21OC(=O)c2ccccc21 (stereo not drawn)

Output line:
1: 520; 2: 520; 3: 520
